Where a name gives a salt, the structure may show the parent alone.
recorded.metric: melting point

For each entry beneath this line, provide reported melting point.
1. CNC(=O)C1=C(C)NC(C)=C(C(=O)NCCCN2CCC(C(=O)OC)(c3ccccc3)CC2)C1c1ccc([N+](=O)[O-])cc1 (stereo not drawn)
2. COc1ccc(C2(c3ccccc3)CCN(CCCNC(=O)C3=C(C)NC(C)=C(C(N)=O)C3c3ccc([N+](=O)[O-])cc3)CC2)cc1 (stereo not drawn) (as salt: hydrochloride)
3. CCC1=C(C(=O)OC)C(c2ccc([N+](=O)[O-])cc2)C(C(=O)NCCCN2CCC(C(=O)OC)(c3ccccc3)CC2)=C(COCCN=[N+]=[N-])N1 (stereo not drawn)
4. CC(C)C1=C(C(N)=O)C(c2ccc([N+](=O)[O-])cc2)C(C(=O)NCCCN2CCC(c3ccccc3)(c3ccccc3)CC2)=C(C(C)C)N1 (stereo not drawn)
5. CCOC(=O)C1(c2ccccc2)CCN(CCCNC(=O)C2=C(C)NC(C)=C(C(=O)NC)C2c2ccc([N+](=O)[O-])cc2)CC1 (stereo not drawn)
6. COC(=O)C1=C(C)NC(C)=C(C(=O)NCCCN2CCC(c3ccccc3)(c3ccccc3)CC2)C1c1ccc(Cl)c(Cl)c1 (stereo not drawn)
7. COC(=O)C1=C(C)NC(C)=C(C(=O)NCCCN2CCC(c3ccccc3)(c3ccccc3)CC2)C1c1cccc([N+](=O)[O-])c1 (stereo not drawn)
8. CCC1=C(C(=O)O)C(c2ccc([N+](=O)[O-])cc2)C(C(=O)NCCCN2CCC(C#N)(c3ccccc3)CC2)=C(COC)N1 (stereo not drawn)

1: 122 to 123 °C; 2: 185 °C (dec.); 3: 50 to 60 °C; 4: 76 to 80 °C; 5: 112 to 113 °C; 6: 177 to 178 °C; 7: 192 to 193 °C; 8: 115 °C (dec.)

====

Structures can show the parent of a compound that is named as a salt.
Exercise: for every item that follows, state its recorded melting point.

Some compounds with known melting point results, for comparison:
CCNC(=O)C1=C(C)NC(C)=C(C(=O)NCCCN2CCC(C(=O)OC)(c3ccccc3)CC2)C1c1ccc([N+](=O)[O-])cc1 (centres unmarked): 117 to 118 °C
COC(=O)C1=C(C)NC(C)=C(C(=O)NCCCN2CCc3ccccc3C2)C1c1ccc([N+](=O)[O-])cc1 (centres unmarked) (as salt: hydrochloride) (hydrate or solvate) [Example 59, hydrochloride hydrate]: 145 to 146 °C
CCOC(=O)C1=C(C)NC(C)=C(C(=O)NCCCN2CCC(C(=O)OC)(c3ccccc3)CC2)C1c1ccc([N+](=O)[O-])cc1 (centres unmarked): 73 to 75 °C
CCC1=C(C(=O)NCCCN2CCC(c3ccccc3)(c3ccccc3)CC2)C(c2cccc(OC)c2)C(C(=O)NCCCN2CCC(c3ccccc3)(c3ccccc3)CC2)=C(CC)N1: 166 to 170 °C
CCC1=C(C(=O)NCCCN2CCC(c3ccccc3)(c3ccccc3)CC2)C(c2ccc([N+](=O)[O-])cc2)C(C(=O)OCc2ccccc2)=C(C)N1 (centres unmarked) (as salt: hydrochloride) (hydrate or solvate) [Example 4, Hydrochloride Salt, Hydrate]: 195 to 198 °C (dec.)
CCC1=C(C(=O)NCCCN2CCC(c3ccccc3)(c3ccccc3)CC2)C(c2ccc([N+](=O)[O-])cc2)C(C(=O)OC(C)(C)C)=C(COCCN=[N+]=[N-])N1 (centres unmarked): 62 to 67 °C
CCC1=C(C(=O)NCCCN2CCC(c3ccccc3)CC2)C(c2ccc([N+](=O)[O-])cc2)C(C(=O)OC)=C(C)N1 (centres unmarked) (as salt: hydrochloride) (hydrate or solvate) [Example 74, hydrochloride hydrate]: 209 to 214 °C (dec.)
CC1=C(C(=O)NCCCN2CCC(c3ccccc3)(c3ccccc3)CC2)C(c2ccc([N+](=O)[O-])cc2)C2=C(CCCC2=O)N1 (centres unmarked): 143 to 146 °C
COC(=O)C1(c2ccccc2)CCN(CCCNC(=O)C2=C(CCCCN)NC(C)=C(C(C)=O)C2c2ccc([N+](=O)[O-])cc2)CC1 (centres unmarked): 62 to 65 °C
COC(=O)C1=C(C)NC(C)=C(C(=O)NCCCN2CCC(c3ccccc3)(c3ccccc3)CC2)C1c1ccc(OC)c(OC)c1 (centres unmarked): 180 to 181 °C

Now turn to the next compound.
Tell me the measured melting point of COC(=O)C1=C(C)NC(C)=C(C(=O)NCCCN2CCC(c3ccccc3)(c3ccccc3)CC2)C1c1ccc(I)cc1 (centres unmarked) , please. 228 to 230 °C (dec.)

====

Target: α1A Human Adrenergic Receptor (Homo sapiens)
Construct: The entire coding region of α1A (1719 bp); expressed in transfected cells
Sequence (P25100 1-572): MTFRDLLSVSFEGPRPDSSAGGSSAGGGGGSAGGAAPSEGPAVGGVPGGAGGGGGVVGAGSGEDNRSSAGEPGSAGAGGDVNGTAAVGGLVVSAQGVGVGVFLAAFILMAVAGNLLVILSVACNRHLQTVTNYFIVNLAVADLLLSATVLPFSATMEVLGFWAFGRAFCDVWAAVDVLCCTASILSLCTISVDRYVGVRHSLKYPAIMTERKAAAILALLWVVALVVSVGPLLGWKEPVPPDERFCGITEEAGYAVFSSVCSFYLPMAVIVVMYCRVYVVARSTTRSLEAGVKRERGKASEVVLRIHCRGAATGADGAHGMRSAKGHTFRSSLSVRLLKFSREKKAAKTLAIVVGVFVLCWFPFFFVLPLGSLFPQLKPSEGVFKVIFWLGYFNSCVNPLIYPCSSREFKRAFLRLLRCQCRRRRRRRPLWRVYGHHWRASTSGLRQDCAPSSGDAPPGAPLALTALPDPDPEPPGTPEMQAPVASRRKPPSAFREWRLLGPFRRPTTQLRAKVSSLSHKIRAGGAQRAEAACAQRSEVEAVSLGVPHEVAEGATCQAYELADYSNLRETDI
Experiment: Radioligand binding, [3H]prazosin, cloned human α1A adrenergic receptor
Settings: pKi alpha-1 1a
Hi there, I'd appreciate the recorded Ki for every entry that follows.
One number for each entry, in nM.

Could I get Ki for every one of these entries?
1. CNC(=O)C1=C(C)NC(C)=C(C(=O)NCCCN2CCC(c3ccccc3)(c3ccccc3)CC2)C1c1ccc([N+](=O)[O-])cc1 (single isomer, unassigned; (-)) [(−)-119]
2. COC(=O)C1=C(C)NC(C)=C(C(=O)NCCCN2CCC(c3ccccc3)(c3ccccc3)CC2)C1c1ccc2ccccc2c1 (stereo not drawn)
3. COC(=O)C1=C(C)NC(C)=C(C(=O)NCCCN2CCC(c3ccccc3)(c3ccccc3)CC2)C1c1ccc(OC)c(OC)c1 (stereo not drawn)

[1170, 741, 525]

====

target: α1A Human Adrenergic Receptor (Homo sapiens, UniProt P25100); construct: The entire coding region of α1A (1719 bp); expressed in transfected cells; experiment: Radioligand binding, [3H]prazosin, cloned human α1A adrenergic receptor; settings: [3H]prazosin, cloned human receptor in LM(tk-) cell membranes; SEM and n in lines below; read-out: pKi alpha-1 1a (converted)
Structures can show the parent of a compound that is named as a salt.
recorded.metric: log10(Ki) (log10 of the value in nM)
Lab note - Ki converted to log10 from values in nM.

COC(=O)C1=C(C)NC(C)=C(C(=O)NCCCN2CCC(c3ccccc3)CC2)C1c1ccc(C)cc1 (stereo not drawn) [Example 31]: 2.05
COC(=O)C1=C(C)NC(C)=C(C(=O)NCCCCN2CCC(c3ccccc3)CC2)C1c1ccc([N+](=O)[O-])cc1 (stereo not drawn) [Example 3, hydrochloride hydrate]: 2.16
COC(=O)C1=C(C)NC(C)=C(C(=O)NCCCN2CCC(c3ccccc3)CC2)C1c1ccc([N+](=O)[O-])cc1 (single isomer, unassigned; (+)) [(+)-45, hydrochloride hemihydrate]: 2.25
COC(=O)C1=C(C)NC(C)=C(C(=O)NCCCN2CCC(c3ccccc3)CC2)C1c1ccc([N+](=O)[O-])cc1 (single isomer, unassigned; (-)) [(−)-45, hydrochloride hemihydrate]: 1.61
COC(=O)C1=C(C)NC(C)=C(C(=O)NCCCN2CCc3cc(OC)c(OC)cc3C2)C1c1ccc([N+](=O)[O-])cc1 (stereo not drawn) [Example 57, hydrochloride hydrate]: 3.21

Turning to the following molecule.
# input molecule: CC1=C(C(N)=O)C(c2ccc([N+](=O)[O-])cc2)C(C(=O)NCCCN2CCC(c3ccccc3)CC2)=C(C)N1 (stereo not drawn) [Example 60] ; wanted: its log10(Ki) 2.30

====

Biological target: α1C Human Adrenergic Receptor (Homo sapiens)
Construct: The entire coding region of α1C (1401 bp); expressed in transfected cells
Sequence (P35348 1-466): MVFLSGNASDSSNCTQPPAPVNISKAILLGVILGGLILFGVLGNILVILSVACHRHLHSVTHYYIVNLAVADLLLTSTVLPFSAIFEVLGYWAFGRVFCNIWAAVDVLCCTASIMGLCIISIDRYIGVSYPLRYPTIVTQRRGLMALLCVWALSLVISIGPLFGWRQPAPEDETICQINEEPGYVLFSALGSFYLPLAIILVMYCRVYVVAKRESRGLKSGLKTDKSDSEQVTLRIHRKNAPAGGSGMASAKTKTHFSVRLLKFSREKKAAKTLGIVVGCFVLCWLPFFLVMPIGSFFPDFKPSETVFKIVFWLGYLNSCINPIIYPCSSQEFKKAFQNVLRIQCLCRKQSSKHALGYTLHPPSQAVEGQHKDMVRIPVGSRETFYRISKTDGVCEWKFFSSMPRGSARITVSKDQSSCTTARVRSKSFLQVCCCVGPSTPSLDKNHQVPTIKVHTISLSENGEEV
Assay: Radioligand binding, [3H]prazosin, cloned human α1C adrenergic receptor
Settings: cloned human receptor, LM(tk-) cell membranes, mean, read-out: PKi alpha-1 1c (converted)
Please go through the items and note down their Ki.

// below: answered compounds
CC1=C(C(N)=O)C(c2ccc([N+](=O)[O-])cc2)C(C(=O)NCCCN2CCC(C#N)(c3ccccc3)CC2)=C(COCCN=[N+]=[N-])N1 (stereo not drawn): 6.17 nM
CCOC(=O)C1(c2ccccc2)CCN(CCCNC(=O)C2=C(COCCN)NC(CC)=C(C(=O)OC)C2c2ccc([N+](=O)[O-])cc2)CC1 (stereo not drawn): 0.55 nM

So what Ki did CC1=C(C(N)=O)C(c2ccc([N+](=O)[O-])cc2)C(C(=O)NCCCN2CCC(c3ccccc3)CC2)=C(COCCN=[N+]=[N-])N1 (stereo not drawn) get with α1C Human Adrenergic Receptor (Homo sapiens)? 1.7 nM
